Data origin: ChEMBL document CHEMBL3603802

- SUBJECT_OF_TEST: UniProt Q9Y6K1
- Sequence (Q9Y6K1 whole entry, looked up): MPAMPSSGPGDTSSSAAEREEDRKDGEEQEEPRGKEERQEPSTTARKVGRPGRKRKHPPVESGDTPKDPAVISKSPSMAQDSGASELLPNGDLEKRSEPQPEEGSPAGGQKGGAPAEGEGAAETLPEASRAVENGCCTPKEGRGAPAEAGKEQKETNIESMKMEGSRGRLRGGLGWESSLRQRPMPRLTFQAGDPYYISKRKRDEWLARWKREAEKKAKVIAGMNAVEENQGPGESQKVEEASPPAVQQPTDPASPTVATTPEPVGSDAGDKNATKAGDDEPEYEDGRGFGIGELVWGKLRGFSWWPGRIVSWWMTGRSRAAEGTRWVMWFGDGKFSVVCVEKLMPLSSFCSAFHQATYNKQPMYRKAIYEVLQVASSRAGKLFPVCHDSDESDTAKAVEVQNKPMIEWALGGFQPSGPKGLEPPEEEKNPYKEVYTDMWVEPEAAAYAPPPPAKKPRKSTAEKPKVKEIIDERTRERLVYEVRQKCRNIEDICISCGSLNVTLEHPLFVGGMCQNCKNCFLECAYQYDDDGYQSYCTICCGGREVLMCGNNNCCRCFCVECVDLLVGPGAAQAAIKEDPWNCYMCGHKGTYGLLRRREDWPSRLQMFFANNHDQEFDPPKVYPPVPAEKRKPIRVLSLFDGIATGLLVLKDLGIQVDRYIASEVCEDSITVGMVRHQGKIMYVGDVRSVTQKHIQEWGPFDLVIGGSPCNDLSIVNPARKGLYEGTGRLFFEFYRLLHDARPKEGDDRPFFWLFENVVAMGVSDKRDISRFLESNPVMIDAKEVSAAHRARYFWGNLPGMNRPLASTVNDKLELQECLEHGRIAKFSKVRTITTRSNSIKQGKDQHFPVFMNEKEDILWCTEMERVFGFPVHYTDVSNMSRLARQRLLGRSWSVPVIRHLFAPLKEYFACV
- TEST_DESCRIPTION: Inhibition of human C-terminal DNMT3A at 32 uM after 1 hr by fluorescence assay

{"MOLECULE": "CCOCC(C(=O)c1ccc(Cl)cc1)n1cnc2ccccc21 (stereo not drawn)", "inhibition (%)": 63}
{"MOLECULE": "O=C(c1ccc(Cl)cc1)C(CSCc1ccco1)n1cnc2ccccc21 (stereo not drawn)", "inhibition (%)": 55}
{"MOLECULE": "O=C(c1ccc(Cl)cc1)C(CSCc1ncccn1)n1cnc2ccccc21 (stereo not drawn)", "inhibition (%)": 43}
{"MOLECULE": "COc1ccc(CSCC(C(=O)c2ccc(Cl)cc2)n2cnc3ccccc32)cc1 (stereo not drawn)", "inhibition (%)": 34}
{"MOLECULE": "O=C(c1ccc(Cl)cc1)C(CSCC1CCCC1)n1cnc2ccccc21 (stereo not drawn)", "inhibition (%)": 36}
{"MOLECULE": "CCSCC(C(=O)c1ccc(OC)cc1)n1cnc2ccccc21 (stereo not drawn)", "inhibition (%)": 0}
{"MOLECULE": "C=C(C(=O)c1ccc(Cl)cc1)n1cnc2ccccc21", "inhibition (%)": 81}
{"MOLECULE": "O=C(c1ccc(Cl)cc1)C(CSCc1ccccc1)n1cnc2ccccc21 (stereo not drawn)", "inhibition (%)": 25}

###

Recorded inhibition by entry
- SUBJECT_OF_TEST: UniProt Q9Y6K1
- TEST_DESCRIPTION: Inhibition of human C-terminal DNMT3A at 20 uM after 1 hr by fluorescence assay
PROPERTY_NAME: inhibition

{"COMPOUND": "CCSCC(C(O)c1ccc(Cl)cc1)n1cnc2ccccc21 (stereo not drawn)", "SUBJECT_OF_TEST": "UniProt Q9Y6K1", "PROPERTY_NAME": "inhibition", "REPORTED": "4%"}
{"COMPOUND": "CC(C)(C)SCC(C(=O)c1ccc(Cl)cc1)n1cnc2ccccc21 (stereo not drawn)", "SUBJECT_OF_TEST": "UniProt Q9Y6K1", "PROPERTY_NAME": "inhibition", "REPORTED": "40%"}
{"COMPOUND": "CC(C)SC(C(=O)c1ccc(Cl)cc1)n1cnc2ccccc21 (stereo not drawn)", "SUBJECT_OF_TEST": "UniProt Q9Y6K1", "PROPERTY_NAME": "inhibition", "REPORTED": "5%"}
{"COMPOUND": "O=C(c1ccc(Cl)cc1)C(CSC1CCCCC1)n1cnc2ccccc21 (stereo not drawn)", "SUBJECT_OF_TEST": "UniProt Q9Y6K1", "PROPERTY_NAME": "inhibition", "REPORTED": "44%"}
{"COMPOUND": "CC(C)SCC(C(=O)c1ccc(Cl)cc1)n1cnc2ccccc21 (stereo not drawn)", "SUBJECT_OF_TEST": "UniProt Q9Y6K1", "PROPERTY_NAME": "inhibition", "REPORTED": "43%"}
{"COMPOUND": "O=C(c1ccc(Cl)cc1)C(CSCc1ccccc1)n1cnc2ccccc21 (stereo not drawn)", "SUBJECT_OF_TEST": "UniProt Q9Y6K1", "PROPERTY_NAME": "inhibition", "REPORTED": "69%"}
{"COMPOUND": "CCSCC(C(=O)c1ccc(Cl)cc1)n1ccnc1 (stereo not drawn)", "SUBJECT_OF_TEST": "UniProt Q9Y6K1", "PROPERTY_NAME": "inhibition", "REPORTED": "43%"}
{"COMPOUND": "CCSCC(C(OC)c1ccc(Cl)cc1)n1cnc2ccccc21 (stereo not drawn)", "SUBJECT_OF_TEST": "UniProt Q9Y6K1", "PROPERTY_NAME": "inhibition", "REPORTED": "5%"}
{"COMPOUND": "CCSCC(C(=O)c1ccc(Cl)cc1)n1cnc2ccccc21 (stereo not drawn)", "SUBJECT_OF_TEST": "UniProt Q9Y6K1", "PROPERTY_NAME": "inhibition", "REPORTED": "70%"}
{"COMPOUND": "CCSC(C(=O)c1ccc(Cl)cc1)n1cnc2ccccc21 (stereo not drawn)", "SUBJECT_OF_TEST": "UniProt Q9Y6K1", "PROPERTY_NAME": "inhibition", "REPORTED": "15%"}
{"COMPOUND": "CCOC(c1ccc(Cl)cc1)C(CSCC)n1cnc2ccccc21 (stereo not drawn)", "SUBJECT_OF_TEST": "UniProt Q9Y6K1", "PROPERTY_NAME": "inhibition", "REPORTED": "9%"}
{"COMPOUND": "CCSCC(Cn1cnc2ccccc21)C(=O)c1ccc(Cl)cc1 (stereo not drawn)", "SUBJECT_OF_TEST": "UniProt Q9Y6K1", "PROPERTY_NAME": "inhibition", "REPORTED": "23%"}
{"COMPOUND": "CC(C)(C)SC(C(=O)c1ccc(Cl)cc1)n1cnc2ccccc21 (stereo not drawn)", "SUBJECT_OF_TEST": "UniProt Q9Y6K1", "PROPERTY_NAME": "inhibition", "REPORTED": "10%"}
